Assayed system: Protoporphyrinogen oxidase, chloroplastic (Nicotiana tabacum)
Sequence (O24163 whole entry): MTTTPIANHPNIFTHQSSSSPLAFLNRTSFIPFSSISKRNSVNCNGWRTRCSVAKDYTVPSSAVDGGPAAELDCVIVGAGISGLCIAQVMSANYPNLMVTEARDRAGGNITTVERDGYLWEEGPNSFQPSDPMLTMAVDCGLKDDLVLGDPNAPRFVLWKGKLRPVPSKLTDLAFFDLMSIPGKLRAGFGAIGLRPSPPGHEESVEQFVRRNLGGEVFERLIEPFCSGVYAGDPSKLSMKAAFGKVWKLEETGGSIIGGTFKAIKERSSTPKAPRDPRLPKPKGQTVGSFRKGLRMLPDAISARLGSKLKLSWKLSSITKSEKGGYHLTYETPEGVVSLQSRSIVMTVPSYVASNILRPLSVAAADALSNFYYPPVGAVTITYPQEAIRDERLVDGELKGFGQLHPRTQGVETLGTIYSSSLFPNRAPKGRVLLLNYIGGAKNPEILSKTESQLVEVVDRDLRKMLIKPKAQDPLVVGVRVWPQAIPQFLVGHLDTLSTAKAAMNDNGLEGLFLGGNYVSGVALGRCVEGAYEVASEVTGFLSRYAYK
Assay remarks: Inhibition of Nicotiana tabacum (tobacco) recombinant PPO assessed as protoporphyrin IX formation at room temperature by fluorimetric assay
pKi: −log10 of the molar value.
Observation type: pKi

Known pKi results, listed for orientation:
Asked: Can you look up the measured pKi of `CCOC(=O)CSc1nc2cc(-n3nc(C)n(C(F)F)c3=O)c(Cl)cc2s1` for me?
Given back: 5.86

Asked: Can you look up the measured pKi of `COC(=O)CSc1nc2cc(-n3nc(C)n(C(F)F)c3=O)c(F)cc2s1` for me?
Given back: 5.97

Asked: Can you look up the measured pKi of `C=CCSc1nc2cc(-n3nc(C)n(C(F)F)c3=O)c(Br)cc2s1` for me?
Given back: 4.89

Asked: Can you look up the measured pKi of `C=CCSc1nc2cc(-n3nc(C)n(C(F)F)c3=O)c(Cl)cc2s1` for me?
Given back: 5.50

Asked: Can you look up the measured pKi of CCOC(=O)C(C)Sc1nc2cc(-n3nc(C)n(C(F)F)c3=O)c(F)cc2s1 (centres undefined) for me?
Given back: 6.62

1. Cc1nn(-c2cc3nc(SCC(=O)O)sc3cc2Cl)c(=O)n1C(F)F
2. Cc1nn(-c2cc3nc(SCCC(=O)O)sc3cc2Cl)c(=O)n1C(F)F
Asked: Which shows the larger pKi value: 1 or 2 ? // return label of chosen record
Given back: 1

A. Cc1nn(-c2cc3nc(SC(C)C(=O)O)sc3cc2Cl)c(=O)n1C(F)F (centres undefined)
B. Cc1nn(-c2cc3nc(SC(C)C(=O)O)sc3cc2F)c(=O)n1C(F)F (centres undefined)
C. C=CCSc1nc2cc(-n3nc(C)n(C(F)F)c3=O)c(F)cc2s1
Asked: Highest pKi first, then in falling order down to the smallest. Form entry: labels listed in requested order.
Given back: C, B, A

a. CCOC(=O)C(C)Sc1nc2cc(-n3nc(C)n(C(F)F)c3=O)c(Cl)cc2s1 (centres undefined)
b. CSc1nc2cc(-n3nc(C)n(C(F)F)c3=O)c(F)cc2s1
Asked: Identify the entry with the smaller pKi: a or b . // return label of chosen record
Given back: a

---

Test system: Amaranthus retroflexus
Assay remarks: Post emergence herbicidal activity against Amaranthus retroflexus seedlings assessed as plant growth inhibition at 150 g ai/ha measured 15 days after compound treatment under greenhouse conditions
Assay type: functional
Condition set: 360 h, read-out: GI
Parameter inhibition of growth at 150 g/ha: see the listing below.

Known inhibition of growth at 150 g/ha results, listed for orientation:
Asked: Can you look up the measured inhibition of growth at 150 g/ha of `C=CCSc1nc2cc(-n3nc(C)n(C(F)F)c3=O)c(Cl)cc2s1` for me?
Given back: 60%

Asked: Can you look up the measured inhibition of growth at 150 g/ha of CCOC(=O)C(C)Sc1nc2cc(-n3nc(C)n(C(F)F)c3=O)c(Cl)cc2s1 (stereo unspecified) for me?
Given back: ≥ 90%

Asked: Can you look up the measured inhibition of growth at 150 g/ha of `COC(=O)Sc1nc2cc(-n3nc(C)n(C(F)F)c3=O)c(F)cc2s1` for me?
Given back: ≥ 90%

Asked: Can you look up the measured inhibition of growth at 150 g/ha of `CCOC(=O)CSc1nc2cc(-n3nc(C)n(C(F)F)c3=O)c(Br)cc2s1` for me?
Given back: ≥ 90%

Asked: Can you look up the measured inhibition of growth at 150 g/ha of `CCOC(=O)CSc1nc2cc(-n3nc(C)n(C(F)F)c3=O)c(F)cc2s1` for me?
Given back: 60%

Query compound follows.
Asked: Can you look up the measured inhibition of growth at 150 g/ha of `Cc1nn(-c2cc3nc(SCC(=O)O)sc3cc2Cl)c(=O)n1C(F)F` for me?
Given back: ≥ 90%
